The reported measurements were obtained from the Immune Epitope Database (IEDB).

Target: HLA-A*33:01
Test: IEDB peptide-MHC binding, purified MHC/competitive/radioactivity; filed as Kd, often an IC50 or EC50 that approximates it; bounds were set here for any values at or beyond the usual limits of such assays
Details: source organism: Vaccinia virus WR
measureName: pKd
The scale used: pKd is minus the common logarithm of the concentration in molar units.

Sample records with pKd:
   orderedresidues  measurename   val
0        DILGVLTIK          pKd  6.71
1        TTKDYFSFK          pKd  7.75
2       ILSDIISAEK          pKd  5.86
3        LFDFVNFVK          pKd  5.04
4        MLTNAISSR          pKd  6.63

So what does the record say about pKd for EIMDKEQLLK ?
5.01

Proceed to AALDGTFQR
6.75

Can you handle IVHSYLKNYK next?
5.01

* * *

Target: HLA-A*11:01
Assay: IEDB peptide-MHC binding, purified MHC/competitive/fluorescence; bounds were set here for any values at or beyond the usual limits of such assays
Conditions: source organism: Homo sapiens
measureName: IC50 (µM)
Express your answer in µM, writing the number without its unit.

Reported IC50, sequence GSSDFQVHFLK : ____
0.0665

* * *

Target: HLA-A*02:01
Assay: IEDB peptide-MHC binding, purified MHC/competitive/radioactivity; filed as Kd, often an IC50 or EC50 that approximates it; bounds were set here for any values at or beyond the usual limits of such assays
Settings: source organism: Dengue virus 2 Thailand/NGS-C/1944
measureName: pKd
Interpret pKd as the negative base-10 log of the concentration measured in mol/L.

Field: pKd (HLA-A*02:01). Entry: MIIMLIPTV
8.41

* * *

Below, each entry is listed alongside its reported pKd.
Molecular target: HLA-A*69:01
Test: IEDB peptide-MHC binding, purified MHC/direct/fluorescence; filed as Kd, often an IC50 or EC50 that approximates it; bounds were set here for any values at or beyond the usual limits of such assays
Details: source organism: Reston ebolavirus - Reston
pKd: −log10 of the molar value.

   orderedresidues     val
0        KHDFIDNPL  ≤ 4.70

Consider the additional sequence presented here.
Which pKd value is on record for FHRKKTDAL ?
≤ 4.70

* * *

Biological target: HLA-A*11:01
Test: IEDB peptide-MHC binding, purified MHC/direct/fluorescence; filed as Kd, often an IC50 or EC50 that approximates it; bounds were set here for any values at or beyond the usual limits of such assays
Conditions: source organism: Homo sapiens
measureName: Kd (µM)
Entry rule: numbers only, all in µM.

Could you share which Kd value was measured for GSEDRDLLY ?
6.94

* * *

Target: HLA-A*26:01
Experiment: IEDB peptide-MHC binding, purified MHC/competitive/radioactivity; filed as Kd, often an IC50 or EC50 that approximates it; bounds were set here for any values at or beyond the usual limits of such assays
Details: source organism: Mammarenavirus whitewaterense
pKd: −log10 of the molar value.
measureName: pKd

What does the record list as pKd for LRIPTHRHI ?
≤ 4.11

* * *

Molecular target: HLA-A*02:02
Experiment: IEDB peptide-MHC binding, purified MHC/competitive/radioactivity; filed as Kd, often an IC50 or EC50 that approximates it; bounds were set here for any values at or beyond the usual limits of such assays
Conditions: source organism: Lymphocytic choriomeningitis virus (strain Armstrong) (clone 53b)
measureName: Kd (nM)
Numeric answer only, unit nM assumed.

Which measured Kd value corresponds to SLNQTVHSL ?
1.9

* * *

Target: HLA-A*11:01
Experiment: IEDB peptide-MHC binding, purified MHC/competitive/radioactivity; filed as Kd, often an IC50 or EC50 that approximates it; bounds were set here for any values at or beyond the usual limits of such assays
Settings: source organism: Vaccinia virus WR
Entries annotated with measured pKd
// scale note: pKd = -log10(conc_M); give the bare number

   orderedresidues   val
0        LIKFISDNK  6.65
1        RLYDYFTRV  6.81
2       GIFVDTMSIY  6.09
3        TTKDYFSFK  9.06
4       ASKKDKLTVY  5.91
5       KIKTNDINVR  4.95

For EIMDKEQLLK , what is its reported pKd?
7.06

Note, next up: YSKLTKDRK
5.31

Then KTSKTTILSK ?
7.02

// same read-out, input: VSMTYLYNK
8.87

* * *

Target: HLA-A*02:16
Assay: IEDB peptide-MHC binding, purified MHC/direct/fluorescence; filed as Kd, often an IC50 or EC50 that approximates it; bounds were set here for any values at or beyond the usual limits of such assays
Settings: source organism: Salmonella enterica subsp. enterica serovar Typhimurium str. LT2
measureName: Kd

Item under review: AMMWRIAQL . Reported Kd?
≤ 1 nM

* * *

Target: HLA-A*24:03
Experiment: IEDB peptide-MHC binding, purified MHC/direct/fluorescence; filed as Kd, often an IC50 or EC50 that approximates it; bounds were set here for any values at or beyond the usual limits of such assays
Conditions: source organism: Listeria monocytogenes
measureName: Kd (nM)
Hi! Could you send only the number? It should be in nM, unit omitted.

So what does the record say about Kd for SYLQAIGIL ?
1.1

* * *

Biological target: HLA-A*02:03
Assay: IEDB peptide-MHC binding, purified MHC/direct/fluorescence; filed as Kd, often an IC50 or EC50 that approximates it; bounds were set here for any values at or beyond the usual limits of such assays
Details: source organism: Variola virus
measureName: pKd
Would you please state pKd, meaning minus log10 of the concentration in mol/L, as a bare number?

If you can, please state the reported pKd value of LMDENTYAM .
7.70

* * *

Target: HLA-A*11:01
Experiment: IEDB peptide-MHC binding, purified MHC/direct/fluorescence; filed as Kd, often an IC50 or EC50 that approximates it; bounds were set here for any values at or beyond the usual limits of such assays
Settings: source organism: Influenza A virus (A/Viet Nam/HN/2004(H5N1))
measureName: Kd

Which Kd reading was recorded for the sequence RNEQGQTLW ?
≥ 20 µM

* * *

Biological target: HLA-B*45:06
Experiment: IEDB peptide-MHC binding, purified MHC/competitive/fluorescence; filed as Kd, often an IC50 or EC50 that approximates it; bounds were set here for any values at or beyond the usual limits of such assays
Details: source organism: Zaire ebolavirus
pKd: −log10 of the molar value.
measureName: pKd

Can you share its pKd? I mean this sequence: FTFDLTALK
≤ 5.30

* * *

Target: HLA-A*02:03
Test: IEDB peptide-MHC binding, purified MHC/competitive/radioactivity; filed as Kd, often an IC50 or EC50 that approximates it; bounds were set here for any values at or beyond the usual limits of such assays
Conditions: source organism: SARS coronavirus Tor2
Reported pKd by item:
Bear in mind: pKd is minus log10 of a mol/L concentration; give just that figure.

Worked examples follow.
In [3]: df
Out[3]:
   orderedresidues  assayedtarget   val
0        LLSAGIFGA    HLA-A*02:03  7.83
1        VVHGYFTEV    HLA-A*02:03  8.49
2        SMWALVISV    HLA-A*02:03  8.35
3        IVNSVLLFL    HLA-A*02:03  6.75
4        LLFQLCTFT    HLA-A*02:03  8.42
5       ALVLLILMTA    HLA-A*02:03  7.29
6        LIDFYLCFL    HLA-A*02:03  7.21
7       ALDGVLSTFV    HLA-A*02:03  7.55

Name the reported pKd value associated with the sequence VLWAHGFEL
7.47

Also check GLIAIVMVTI
7.72

// query: IVDTVSALV
6.28

* * *

Target: HLA-B*51:01
Assay: IEDB peptide-MHC binding, purified MHC/direct/fluorescence; filed as Kd, often an IC50 or EC50 that approximates it; bounds were set here for any values at or beyond the usual limits of such assays
Settings: source organism: Mycobacterium tuberculosis
measureName: Kd (nM)
Write the number in nM without appending the unit.

What measured Kd goes with RPRLWRSVI ?
964

* * *

Molecular target: HLA-A*31:01
Assay: IEDB peptide-MHC binding, purified MHC/competitive/radioactivity; filed as Kd, often an IC50 or EC50 that approximates it; bounds were set here for any values at or beyond the usual limits of such assays
Details: source organism: Mammarenavirus brazilense
measureName: Kd (nM)
Provide the reading as a plain figure in nM.

Data request, read-out Kd, for FKVAFSKHYK
48.3

* * *

Target: HLA-B*18:01
Experiment: IEDB peptide-MHC binding, purified MHC/competitive/fluorescence; filed as Kd, often an IC50 or EC50 that approximates it; bounds were set here for any values at or beyond the usual limits of such assays
Details: source organism: Orthohantavirus andesense
measureName: Kd

// lookup Kd for DWMDRIEEF
≥ 20 µM
